assay: Elimination rate constant in Beagle dog at 2.5 mg/kg, im; assay type: ADME, organism-based, Canis lupus familiaris; set-up: dose 2.5 mg/kg, route intramuscular; settings: in vivo
PROPERTY_MEASURED: k el
Please answer in the form of a number followed by its unit of measurement.

Req: Record request: k el value, item C[C@@H]1CN(c2c(F)c(F)c3c(=O)c(C(=O)O)cn(C4CC4)c3c2F)C[C@H](C)N1 [ORBIFLOXACIN]
Resp: 4.72e-05 s⁻¹

* * *

test: AUC (0 to 24 hrs) in Beagle dog at 2.5 mg/kg, im; assay type: ADME, organism-based, Canis lupus familiaris; set-up: time < 24 hr, dose 2.5 mg/kg, route intramuscular; settings: plasma
PROPERTY_MEASURED: AUC(0-t) at 24 h (ng·h/mL)
Give just the numeric value; ng·h/mL need not be written.

Req: Record request: AUC(0-t) at 24 h value, item `C[C@@H]1CN(c2c(F)c(F)c3c(=O)c(C(=O)O)cn(C4CC4)c3c2F)C[C@H](C)N1`
Resp: 8370

* * *

assay: Mean residence time (0 to 24 hrs) in Beagle dog at 2.5 mg/kg, iv; assay type: ADME, organism-based, Canis lupus familiaris; parameters: dose 2.5 mg/kg, route intravenous; details: in vivo
PROPERTY_MEASURED: MRT last (h)
Give just the numeric value; h need not be written.

Req: Record request: MRT last value, item C[C@@H]1CN(c2c(F)c(F)c3c(=O)c(C(=O)O)cn(C4CC4)c3c2F)C[C@H](C)N1 [ORBIFLOXACIN]
Resp: 4.71

* * *

experiment: AUC (0 to 24 hrs) in Beagle dog at 2.5 mg/kg, iv; type: ADME, organism-based, Canis lupus familiaris; parameters: time < 24 hr, dose 2.5 mg/kg, route intravenous; settings: plasma
PROPERTY_MEASURED: AUC(0-t) at 24 h (ng·h/mL)
Give just the numeric value; ng·h/mL need not be written.

Req: Record request: AUC(0-t) at 24 h value, item `C[C@@H]1CN(c2c(F)c(F)c3c(=O)c(C(=O)O)cn(C4CC4)c3c2F)C[C@H](C)N1`
Resp: 8070

* * *

test: Apparent volume of distribution in Beagle dog at 2.5 mg/kg, iv; type: ADME, organism-based, Canis lupus familiaris; design: dose 2.5 mg/kg, route intravenous; details: in vivo, read-out: Vz
PROPERTY_MEASURED: Vd

Req: Record request: Vd value, item `C[C@@H]1CN(c2c(F)c(F)c3c(=O)c(C(=O)O)cn(C4CC4)c3c2F)C[C@H](C)N1`
Resp: 1.95 L/kg

* * *

assay: Clearance in Beagle dog at 2.5 mg/kg, iv; type: ADME, organism-based, Canis lupus familiaris; set-up: dose 2.5 mg/kg, route intravenous; settings: in vivo
PROPERTY_MEASURED: clearance (mL/min/kg)
Give just the numeric value; mL/min/kg need not be written.

Req: Record request: clearance value, item `C[C@@H]1CN(c2c(F)c(F)c3c(=O)c(C(=O)O)cn(C4CC4)c3c2F)C[C@H](C)N1`
Resp: 5.17

* * *

assay: AUC (0 to infinity) in Beagle dog at 2.5 mg/kg, im; type: ADME, organism-based, Canis lupus familiaris; parameters: time infinity, dose 2.5 mg/kg, route intramuscular; conditions: plasma
PROPERTY_MEASURED: AUC(0-inf) (ng·h/mL)
Give just the numeric value; ng·h/mL need not be written.

Req: Record request: AUC(0-inf) value, item C[C@@H]1CN(c2c(F)c(F)c3c(=O)c(C(=O)O)cn(C4CC4)c3c2F)C[C@H](C)N1 [ORBIFLOXACIN]
Resp: 8490

# credit: ChEMBL document CHEMBL1649501
